Tested on: SK-MES-1
ASSAY PROTOCOL: relative viability (nuclei count vs DMSO), 5 days (fraction); higher = more cells survive
REPORTED CONDITIONS: first compound 0.003162 µM
Task for the reader: assign each of the following molecules its reported relative viability.
// print number alone

Enquiry: Lab note: record relative viability of Cc1cn(-c2cc(NC(=O)c3ccc(C)c(Nc4nccc(-c5cccnc5)n4)c3)cc(C(F)(F)F)c2)cn1 [Nilotinib] + Cc1nc(Nc2ncc(C(=O)Nc3c(C)cccc3Cl)s2)cc(N2CCN(CCO)CC2)n1 [Dasatinib] (partner 0.075 µM) tested on SK-MES-1.
Return: 0.334

Enquiry: Lab note: record relative viability of Cc1cn(-c2cc(NC(=O)c3ccc(C)c(Nc4nccc(-c5cccnc5)n4)c3)cc(C(F)(F)F)c2)cn1 [Nilotinib] + COc1cc2c(Oc3ccc(NC(=O)C4(C(=O)Nc5ccc(F)cc5)CC4)cc3F)ccnc2cc1OCCCN1CCOCC1 [Foretinib] (partner 0.25 µM) tested on SK-MES-1.
Return: 1.13

Enquiry: Lab note: record relative viability of Cc1cn(-c2cc(NC(=O)c3ccc(C)c(Nc4nccc(-c5cccnc5)n4)c3)cc(C(F)(F)F)c2)cn1 [Nilotinib] + C[C@]1(O)C[C@@H](c2nc(-c3ccc4ccc(-c5ccccc5)nc4c3)c3c(N)nccn32)C1 [Linsitinib] (partner 1 µM) tested on SK-MES-1.
Return: 1.29

Enquiry: Lab note: record relative viability of Cc1cn(-c2cc(NC(=O)c3ccc(C)c(Nc4nccc(-c5cccnc5)n4)c3)cc(C(F)(F)F)c2)cn1 [Nilotinib] + CC(=O)c1c(C)c2cnc(Nc3ccc(N4CCNCC4)cn3)nc2n(C2CCCC2)c1=O [Palbociclib] (partner 0.5 µM) tested on SK-MES-1.
Return: 0.298

Enquiry: Lab note: record relative viability of Cc1cn(-c2cc(NC(=O)c3ccc(C)c(Nc4nccc(-c5cccnc5)n4)c3)cc(C(F)(F)F)c2)cn1 [Nilotinib] + CCNC(=O)c1noc(-c2cc(C(C)C)c(O)cc2O)c1-c1ccc(CN2CCOCC2)cc1 [Luminespib] (partner 0.01 µM) tested on SK-MES-1.
Return: 0.985

Enquiry: Lab note: record relative viability of Cc1cn(-c2cc(NC(=O)c3ccc(C)c(Nc4nccc(-c5cccnc5)n4)c3)cc(C(F)(F)F)c2)cn1 [Nilotinib] + Nc1ncn([C@H]2C[C@H](O)[C@@H](CO)O2)c(=O)n1 [Decitabine] (partner 2 µM) tested on SK-MES-1.
Return: 0.487

---

Task for the reader: assign each of the following molecules its reported relative viability.
Tested on: HCC-827
ASSAY PROTOCOL: relative viability (nuclei count vs DMSO), 5 days (fraction); higher = more cells survive
REPORTED CONDITIONS: first compound 8 µM

Enquiry: Tell me relative viability reported for Nc1cccc2c1CN(C1CCC(=O)NC1=O)C2=O (stereo unspecified) [Lenalidomide] + Nc1nc2[nH]cc(CCc3ccc(C(=O)N[C@@H](CCC(=O)O)C(=O)O)cc3)c2c(=O)[nH]1 [Pemetrexed] (partner 0.2 µM)
Return: 0.304

Enquiry: Tell me relative viability reported for Nc1cccc2c1CN(C1CCC(=O)NC1=O)C2=O (stereo unspecified) [Lenalidomide] + C[C@]1(O)C[C@@H](c2nc(-c3ccc4ccc(-c5ccccc5)nc4c3)c3c(N)nccn32)C1 [Linsitinib] (partner 1 µM)
Return: 1.07

Enquiry: Tell me relative viability reported for Nc1cccc2c1CN(C1CCC(=O)NC1=O)C2=O (stereo unspecified) [Lenalidomide] + O=C(c1cc(Cc2n[nH]c(=O)c3ccccc23)ccc1F)N1CCN(C(=O)C2CC2)CC1 [Olaparib] (partner 8 µM)
Return: 0.612

Enquiry: Tell me relative viability reported for Nc1cccc2c1CN(C1CCC(=O)NC1=O)C2=O (stereo unspecified) [Lenalidomide] + COc1cc2c(Oc3ccc(NC(=O)C4(C(=O)Nc5ccc(F)cc5)CC4)cc3F)ccnc2cc1OCCCN1CCOCC1 [Foretinib] (partner 0.25 µM)
Return: 1.04

Enquiry: Tell me relative viability reported for Nc1cccc2c1CN(C1CCC(=O)NC1=O)C2=O (stereo unspecified) [Lenalidomide] + COc1cccc2cc(-c3nc([C@H]4CC[C@H](C(=O)O)CC4)n4ncnc(N)c34)[nH]c12 [OSI-027] (partner 0.5 µM)
Return: 0.831

Enquiry: Tell me relative viability reported for Nc1cccc2c1CN(C1CCC(=O)NC1=O)C2=O (stereo unspecified) [Lenalidomide] + C[C@@H](Oc1cc(-c2cnn(C3CCNCC3)c2)cnc1N)c1c(Cl)ccc(F)c1Cl [Crizotinib] (partner 1 µM)
Return: 1.06

---

System: LOU-NH91
ASSAY PROTOCOL: relative viability (nuclei count vs DMSO), 5 days (fraction); higher = more cells survive
REPORTED CONDITIONS: first compound 0.6325 µM
Task for the reader: assign each of the following compounds its reported relative viability.
// print number alone

Enquiry: Lab note: record relative viability of CN1CCN(CCOc2cc(OC3CCOCC3)c3c(Nc4c(Cl)ccc5c4OCO5)ncnc3c2)CC1 [Saracatinib] + C[C@]1(O)C[C@@H](c2nc(-c3ccc4ccc(-c5ccccc5)nc4c3)c3c(N)nccn32)C1 [Linsitinib] (partner 1 µM) tested on LOU-NH91.
Return: 0.594

Enquiry: Lab note: record relative viability of CN1CCN(CCOc2cc(OC3CCOCC3)c3c(Nc4c(Cl)ccc5c4OCO5)ncnc3c2)CC1 [Saracatinib] + Nc1nc2[nH]cc(CCc3ccc(C(=O)N[C@@H](CCC(=O)O)C(=O)O)cc3)c2c(=O)[nH]1 [Pemetrexed] (partner 0.2 µM) tested on LOU-NH91.
Return: 0.472

Enquiry: Lab note: record relative viability of Cc1csc(=NC2CCCCC2)n1/N=C/c1ccc(O)c(O)c1O [MIM1] + C[C@@H](Oc1cc(-c2cnn(C3CCNCC3)c2)cnc1N)c1c(Cl)ccc(F)c1Cl [Crizotinib] (partner 1 µM) tested on LOU-NH91.
Return: 0.728

Enquiry: Lab note: record relative viability of Cc1csc(=NC2CCCCC2)n1/N=C/c1ccc(O)c(O)c1O [MIM1] + CC(=O)Nc1cccc(-n2c(=O)n(C3CC3)c(=O)c3c(Nc4ccc(I)cc4F)n(C)c(=O)c(C)c32)c1 [Trametinib] (partner 0.02 µM) tested on LOU-NH91.
Return: 0.839

Enquiry: Lab note: record relative viability of CN1CCN(CCOc2cc(OC3CCOCC3)c3c(Nc4c(Cl)ccc5c4OCO5)ncnc3c2)CC1 [Saracatinib] + N=C(N)NC(=N)NCCc1ccccc1 [Phenformin] (partner 250 µM) tested on LOU-NH91.
Return: 0.553

Enquiry: Lab note: record relative viability of CN1CCN(CCOc2cc(OC3CCOCC3)c3c(Nc4c(Cl)ccc5c4OCO5)ncnc3c2)CC1 [Saracatinib] + CC(=O)c1c(C)c2cnc(Nc3ccc(N4CCNCC4)cn3)nc2n(C2CCCC2)c1=O [Palbociclib] (partner 0.5 µM) tested on LOU-NH91.
Return: 0.569

Enquiry: Lab note: record relative viability of Cc1csc(=NC2CCCCC2)n1/N=C/c1ccc(O)c(O)c1O [MIM1] + CS(=O)(=O)N1CCN(Cc2cc3nc(-c4cccc5[nH]ncc45)nc(N4CCOCC4)c3s2)CC1 [Pictilisib] (partner 1 µM) tested on LOU-NH91.
Return: 0.524

Enquiry: Lab note: record relative viability of Cc1csc(=NC2CCCCC2)n1/N=C/c1ccc(O)c(O)c1O [MIM1] + O=C(c1cc(Cc2n[nH]c(=O)c3ccccc23)ccc1F)N1CCN(C(=O)C2CC2)CC1 [Olaparib] (partner 8 µM) tested on LOU-NH91.
Return: 0.922

Enquiry: Lab note: record relative viability of Cc1csc(=NC2CCCCC2)n1/N=C/c1ccc(O)c(O)c1O [MIM1] + CS(=O)(=O)CCNCc1ccc(-c2ccc3ncnc(Nc4ccc(OCc5cccc(F)c5)c(Cl)c4)c3c2)o1 [Lapatinib] (partner 2 µM) tested on LOU-NH91.
Return: 0.8

Enquiry: Lab note: record relative viability of CN1CCN(CCOc2cc(OC3CCOCC3)c3c(Nc4c(Cl)ccc5c4OCO5)ncnc3c2)CC1 [Saracatinib] + O=C(c1cc(Cc2n[nH]c(=O)c3ccccc23)ccc1F)N1CCN(C(=O)C2CC2)CC1 [Olaparib] (partner 8 µM) tested on LOU-NH91.
Return: 0.73

Enquiry: Lab note: record relative viability of Cc1csc(=NC2CCCCC2)n1/N=C/c1ccc(O)c(O)c1O [MIM1] + Cc1nc(Nc2ncc(C(=O)Nc3c(C)cccc3Cl)s2)cc(N2CCN(CCO)CC2)n1 [Dasatinib] (partner 0.075 µM) tested on LOU-NH91.
Return: 0.529

---

Task for the reader: assign each of the following compounds its reported relative viability.
Tested on: NCI-H2347
ASSAY PROTOCOL: relative viability (nuclei count vs DMSO), 5 days (fraction); higher = more cells survive
REPORTED CONDITIONS: first compound 6.325 µM
// print number alone

Enquiry: Tell me relative viability reported for Cc1csc(=NC2CCCCC2)n1/N=C/c1ccc(O)c(O)c1O [MIM1] + CCNC(=O)c1noc(-c2cc(C(C)C)c(O)cc2O)c1-c1ccc(CN2CCOCC2)cc1 [Luminespib] (partner 0.01 µM)
Return: 0.346

Enquiry: Tell me relative viability reported for Cc1csc(=NC2CCCCC2)n1/N=C/c1ccc(O)c(O)c1O [MIM1] + NC(=O)Nc1cc(-c2cccc(F)c2)sc1C(=O)N[C@H]1CCCNC1 [AZD7762] (partner 0.2 µM)
Return: 0.623

Enquiry: Tell me relative viability reported for Cc1csc(=NC2CCCCC2)n1/N=C/c1ccc(O)c(O)c1O [MIM1] + Cc1cc(Nc2cc(N3CCN(C)CC3)nc(Sc3ccc(NC(=O)C4CC4)cc3)n2)n[nH]1 [Tozasertib] (partner 0.1 µM)
Return: 0.473

Enquiry: Tell me relative viability reported for Cc1csc(=NC2CCCCC2)n1/N=C/c1ccc(O)c(O)c1O [MIM1] + N=C(N)NC(=N)NCCc1ccccc1 [Phenformin] (partner 250 µM)
Return: 0.39

Enquiry: Tell me relative viability reported for Cc1csc(=NC2CCCCC2)n1/N=C/c1ccc(O)c(O)c1O [MIM1] + Cc1nc(NC(=O)N2CCC[C@H]2C(N)=O)sc1-c1ccnc(C(C)(C)C(F)(F)F)c1 [Alpelisib] (partner 2 µM)
Return: 0.728

Enquiry: Tell me relative viability reported for Cc1csc(=NC2CCCCC2)n1/N=C/c1ccc(O)c(O)c1O [MIM1] + Nc1nc2[nH]cc(CCc3ccc(C(=O)N[C@@H](CCC(=O)O)C(=O)O)cc3)c2c(=O)[nH]1 [Pemetrexed] (partner 0.2 µM)
Return: 0.421

Enquiry: Tell me relative viability reported for Cc1csc(=NC2CCCCC2)n1/N=C/c1ccc(O)c(O)c1O [MIM1] + CC(C)C[C@H](NC(=O)[C@H](Cc1ccccc1)NC(=O)c1cnccn1)B(O)O [Bortezomib] (partner 0.002 µM)
Return: 0.798

Values were extracted from the supplement of paper PMC10307832.
